- Test system: Gaeumannomyces graminis var. tritici (Ggt)
- protocolSummary: In vitro Assay: mycelial growth of Ggt on minimal media agar plates containing test compound
- Assay type: cell-based
- testSettings: Gaeumannomyces graminis; 1 ppm in minimal media agar; dark, 19-20° C., 4 to 5 days; diameter of mycelial growth; read-out: In vitro (ppm) 1, Percent Inhibition
// reported inhibition at 1 ppm for each item listed

{"molecule": "CCN(CC)C(=O)c1c(C)cc(C)cc1[Si](C)(C)C", "inhibition at 1 ppm": "< 0%"}
{"molecule": "CCNC(=O)c1c(Cl)cccc1-c1ccc2ccccc2c1", "inhibition at 1 ppm": "< 0%"}
{"molecule": "CCNC(=O)c1sc([S+](C)[O-])cc1[Si](C)(C)C (stereo not drawn)", "inhibition at 1 ppm": "< 0%"}

----------
// reported inhibition at 1 ppm for each item listed
- Test system: Gaeumannomyces graminis var. tritici (Ggt)
- protocolSummary: In vitro Assay: mycelial growth of Ggt on minimal media agar plates containing test compound
- Assay type: cell-based
- testSettings: Gaeumannomyces graminis; 1 ppm in minimal media agar; dark, 19-20° C., 4 to 5 days; diameter of mycelial growth; read-out: In vitro (ppm) 1, Percent Inhibition
readoutLabel: inhibition at 1 ppm (%)

{"compound": "CCN(CC)C(=O)c1cccc(F)c1[Si](C)(C)C", "unitAnnotation": "%", "valueComparator": "<", "measuredNumber": 0}
{"compound": "CCN(CC)C(=O)c1c(Cl)cccc1[Si](C(C)C)(C(C)C)C(C)C", "unitAnnotation": "%", "valueComparator": "<", "measuredNumber": 0}
{"compound": "CCNC(=O)c1c([Si](C)(C)C)ccc(C#C[Si](C)(C)C)c1Cl", "unitAnnotation": "%", "valueComparator": "=", "measuredNumber": 63}
{"compound": "CCNC(=O)c1nc(Cl)sc1[Si](C)(C)C", "unitAnnotation": "%", "valueComparator": "=", "measuredNumber": 15}
{"compound": "C=CC[Si](C)(C)c1cccc(Cl)c1C(=O)NCC", "unitAnnotation": "%", "valueComparator": "=", "measuredNumber": 88}
{"compound": "Cc1ccccc1NC(=O)c1c(Br)cccc1[Si](C)(C)C", "unitAnnotation": "%", "valueComparator": "=", "measuredNumber": 26}
{"compound": "C[Si](C)(C)c1cccc(Cl)c1C(=O)NCc1cccc([N+](=O)[O-])c1", "unitAnnotation": "%", "valueComparator": "=", "measuredNumber": 64}
{"compound": "CCCN(CCC)C(=O)c1ccccc1[Si](C)(C)C [Example 13, N,N-Dipropyl-2-(trimethylsilyl)benzamide]", "unitAnnotation": "%", "valueComparator": "=", "measuredNumber": 17}

----------
- System: Gaeumannomyces graminis var. tritici (Ggt)
- protocolSummary: In vitro Assay: mycelial growth of Ggt on minimal media agar plates containing test compound
- Format: cell-based
- testSettings: Gaeumannomyces graminis; 0.1 ppm in minimal media agar; dark, 19-20° C., 4 to 5 days; diameter of mycelial growth; read-out: In vitro (ppm) 0.1, Percent Inhibition
// reported inhibition at 0.1 ppm for each item listed
readoutLabel: inhibition at 0.1 ppm (%)

{"givenSmiles": "CN(Cc1ccc(C(F)(F)F)cc1)C(=O)c1c(Cl)cccc1[Si](C)(C)C", "unitAnnotation": "%", "valueComparator": "<", "measuredNumber": 0}
{"givenSmiles": "CCNC(=O)c1ccsc1[Si](C)(C)C", "unitAnnotation": "%", "valueComparator": "<", "measuredNumber": 0}
{"givenSmiles": "CCNC(=O)c1c(Cl)cccc1C(C)(C)C", "unitAnnotation": "%", "valueComparator": "<", "measuredNumber": 0}
{"givenSmiles": "CCNC(=O)c1c([Si](C)(C)C)ccc(CF)c1Cl", "unitAnnotation": "%", "valueComparator": "<", "measuredNumber": 0}
{"givenSmiles": "CNC(=O)c1c(Cl)cccc1[Si](C)(C)C", "unitAnnotation": "%", "valueComparator": "<", "measuredNumber": 0}
{"givenSmiles": "CCOC(=O)Nc1c(Cl)cccc1[Si](C)(C)C", "unitAnnotation": "%", "valueComparator": "=", "measuredNumber": 10}
{"givenSmiles": "CCN(CC)C(=O)c1c(Cl)cccc1[Si](C)(C)C", "unitAnnotation": "%", "valueComparator": "=", "measuredNumber": 49}
{"givenSmiles": "CCN(SC)C(=O)c1c(Cl)cccc1[Si](C)(C)C", "unitAnnotation": "%", "valueComparator": "=", "measuredNumber": 94}
{"givenSmiles": "C=C[Si](C)(C)c1cccc(Cl)c1C(=O)NCC", "unitAnnotation": "%", "valueComparator": "=", "measuredNumber": 93}
{"givenSmiles": "CCNC(=O)c1c(Cl)cccc1-c1cccc2ccccc12", "unitAnnotation": "%", "valueComparator": "=", "measuredNumber": 13}
